target of assay: T1, Csn12 (binary complex);Sem1 (Saccharomyces cerevisiae;Saccharomyces …, UniProt P47130;O94742 1-423;1-89, |)
T1 sequence 1: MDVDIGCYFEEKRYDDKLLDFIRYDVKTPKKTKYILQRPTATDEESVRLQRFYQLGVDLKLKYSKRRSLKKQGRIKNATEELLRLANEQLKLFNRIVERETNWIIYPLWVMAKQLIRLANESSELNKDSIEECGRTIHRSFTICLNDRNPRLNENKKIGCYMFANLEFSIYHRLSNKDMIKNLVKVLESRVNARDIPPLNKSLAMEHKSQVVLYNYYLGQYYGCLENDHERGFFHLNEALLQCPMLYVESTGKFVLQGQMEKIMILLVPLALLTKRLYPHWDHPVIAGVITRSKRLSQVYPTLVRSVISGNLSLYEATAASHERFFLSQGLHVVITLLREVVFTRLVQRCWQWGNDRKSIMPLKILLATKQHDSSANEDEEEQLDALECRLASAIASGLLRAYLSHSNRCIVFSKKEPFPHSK
T1 sequence 2: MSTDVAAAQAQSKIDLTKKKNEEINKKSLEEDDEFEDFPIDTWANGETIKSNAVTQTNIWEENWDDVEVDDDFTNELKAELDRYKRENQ
assay protocol: fluorescence polarization; FP: 20 mM Tris-HCl pH 8.0, 150 mM NaCl, 2 mM MgCl2, 25 C; 50 nM 5'-FAM probe, protein 0-25.6 uM, 30 min
condition info: protein: recombinant;recombinant; tags: 6xHis;none; copies: 1;1; label: 5' FAM
quantity: pKd
In plain terms, pKd is the concentration in mol/L turned into minus its base-10 logarithm.

If you can, please state the reported pKd value of TTTTATTTTATTTTTATTTTATTTT (ssDNA) [T-rich ssDNA 25] . 4.47
